protocol_summary: Cytotoxicity against human EC109 cells assessed as reduction in cell viability after 72 hrs by MTT assay
Type: functional, cell-based
condition_notes: ECa-109, 72 h
pIC50: −log10 of the molar value.
value_kind: pIC50

INSERT INTO results (compound, relation_operator, recorded_result) VALUES
  ('O=C1C(=Cc2ccco2)C(=O)N(c2ccc(Cl)cc2)N1c1ccc(Cl)cc1', '=', 4.84),
  ('O=C1C(=Cc2ccccc2)C(=O)N(c2ccc(Cl)cc2)N1c1ccc(Cl)cc1', '=', 4.49),
  ('COc1cccc(C=C2C(=O)N(c3ccc(Cl)cc3)N(c3ccc(Cl)cc3)C2=O)c1OC', '=', 5.17),
  ('COc1cc(C=C2C(=O)N(c3ccc(Cl)cc3)N(c3ccc(Cl)cc3)C2=O)cc(OC)c1OC', '=', 5.00),
  ('COc1ccc(C=C2C(=O)N(c3ccc(Cl)cc3)N(c3ccc(Cl)cc3)C2=O)cc1', '<', 3.89),
  ('CC(C)=C1C(=O)N(c2ccc(Cl)cc2)N(c2ccc(Cl)cc2)C1=O', '=', 4.38),
  ('COc1ccccc1C=C1C(=O)N(c2ccc(Cl)cc2)N(c2ccc(Cl)cc2)C1=O', '=', 4.52),
  ('O=C1C(=Cc2ccc(Cl)cc2Cl)C(=O)N(c2ccc(Cl)cc2)N1c1ccc(Cl)cc1', '=', 4.22),
  ('COc1cc(C=C2C(=O)N(c3ccc(Cl)cc3)N(c3ccc(Cl)cc3)C2=O)ccc1O', '=', 5.15),
  ('O=C1C(=Cc2ccc(Br)cc2)C(=O)N(c2ccc(Cl)cc2)N1c1ccc(Cl)cc1', '=', 4.91),
  ('O=C1C(=Cc2cccc(Cl)c2)C(=O)N(c2ccc(Cl)cc2)N1c1ccc(Cl)cc1', '=', 4.65),
  ('O=C1C(=Cc2ccc(O)cc2)C(=O)N(c2ccc(Cl)cc2)N1c1ccc(Cl)cc1', '=', 4.47),
  ('O=c1[nH]cc(F)c(=O)[nH]1 [FLUOROURACIL]', '=', 4.80),
  ('COc1cccc(C=C2C(=O)N(c3ccc(Cl)cc3)N(c3ccc(Cl)cc3)C2=O)c1O', '=', 4.41),
  ('COc1ccc(C=C2C(=O)N(c3ccc(Cl)cc3)N(c3ccc(Cl)cc3)C2=O)cc1OC', '<', 3.89),
  ('CCC(C)=C1C(=O)N(c2ccc(Cl)cc2)N(c2ccc(Cl)cc2)C1=O', '=', 4.39),
  ('O=C1C(=Cc2ccc(F)c(F)c2)C(=O)N(c2ccc(Cl)cc2)N1c1ccc(Cl)cc1', '=', 4.88),
  ('O=C1C(=Cc2ccc(Cl)cc2)C(=O)N(c2ccc(Cl)cc2)N1c1ccc(Cl)cc1', '=', 4.76),
  ('O=C1C(=C/C=C/c2ccccc2)C(=O)N(c2ccc(Cl)cc2)N1c1ccc(Cl)cc1', '=', 5.00);

###

Property: pIC50; scope: individual compounds
protocol_summary: Cytotoxicity against human MGC803 cells assessed as reduction in cell viability after 72 hrs by MTT assay
Format: functional, cell-based
condition_notes: MGC-803, 72 h
pIC50: −log10 of the molar value.
value_kind: pIC50

INSERT INTO measurements (chemical_string, value_kind, relation_operator, recorded_result) VALUES
  ('COc1ccc(C=C2C(=O)N(c3ccc(Cl)cc3)N(c3ccc(Cl)cc3)C2=O)cc1OC', 'pIC50', '<', 3.89),
  ('O=C1C(=Cc2ccc(F)cc2)C(=O)N(c2ccc(Cl)cc2)N1c1ccc(Cl)cc1', 'pIC50', '=', 4.59),
  ('O=C1C(=Cc2c[nH]c3ccccc23)C(=O)N(c2ccc(Cl)cc2)N1c1ccc(Cl)cc1', 'pIC50', '=', 4.66),
  ('O=C1C(=Cc2ccc(Cl)cc2)C(=O)N(c2ccc(Cl)cc2)N1c1ccc(Cl)cc1', 'pIC50', '=', 4.49),
  ('O=C1C(=Cc2ccccc2)C(=O)N(c2ccc(Cl)cc2)N1c1ccc(Cl)cc1', 'pIC50', '=', 4.57),
  ('CCC(C)=C1C(=O)N(c2ccc(Cl)cc2)N(c2ccc(Cl)cc2)C1=O', 'pIC50', '=', 4.18),
  ('O=C1C(=Cc2ccc(Cl)cc2Cl)C(=O)N(c2ccc(Cl)cc2)N1c1ccc(Cl)cc1', 'pIC50', '<', 3.89),
  ('COc1ccccc1C=C1C(=O)N(c2ccc(Cl)cc2)N(c2ccc(Cl)cc2)C1=O', 'pIC50', '=', 4.54),
  ('O=C1C(=C/C=C/c2ccccc2)C(=O)N(c2ccc(Cl)cc2)N1c1ccc(Cl)cc1', 'pIC50', '=', 5.29),
  ('CC(=C1C(=O)N(c2ccc(Cl)cc2)N(c2ccc(Cl)cc2)C1=O)c1ccc(O)cc1', 'pIC50', '=', 4.37),
  ('COc1ccc(C=C2C(=O)N(c3ccc(Cl)cc3)N(c3ccc(Cl)cc3)C2=O)cc1', 'pIC50', '<', 3.89),
  ('CN(C)c1ccc(C=C2C(=O)N(c3ccc(Cl)cc3)N(c3ccc(Cl)cc3)C2=O)cc1', 'pIC50', '=', 4.10),
  ('COc1cc(C=C2C(=O)N(c3ccc(Cl)cc3)N(c3ccc(Cl)cc3)C2=O)ccc1O', 'pIC50', '=', 4.66),
  ('O=C1C(=Cc2cccc(Cl)c2)C(=O)N(c2ccc(Cl)cc2)N1c1ccc(Cl)cc1', 'pIC50', '=', 4.84),
  ('O=C1C(=Cc2ccco2)C(=O)N(c2ccc(Cl)cc2)N1c1ccc(Cl)cc1', 'pIC50', '=', 4.89);

Attribution: ChEMBL document CHEMBL3751767
